# System: NO production
# Assay Remarks: NO release from LPS/IFN-γ-stimulated RAW 264.7 macrophages (Griess)
# Type: cell-based, mouse
# Condition Description: Mus musculus, Macrophage; 30 µM; LPS/IFNγ-stimulated RAW macrophages; means ± SD of 3 experiments in duplicates
Observed Property: inhibition at 30 µM (%)

Molecule	Recorded Measurement
O=c1cc(-c2ccc(O)cc2)oc2cc(O)cc(O)c12	24.3
COc1cc(-c2cc(=O)c3c(OC)cc(O)cc3o2)cc(OC)c1OC	8.22
COc1ccc(-c2cc(=O)c3c(O)cc(O)c(-c4cc(-c5cc(=O)c6c(O)cc(O)cc6o5)ccc4O)c3o2)cc1 [Compound 33, podocarpusflavone A, reference compound]	3.42
C=Cc1c(C)c2cc3nc(c4c5[nH]c(cc6nc(cc1[nH]2)C(C)=C6CC)c(C)c5C(=O)[C@@H]4C(=O)OC)[C@@H](CCC(=O)O)[C@@H]3C [Compound 52, pheophorbide A, reference compound]	5.48
O=c1cc(-c2ccc(O)c(-c3c(O)cc(O)c4c(=O)cc(-c5ccc(O)cc5)oc34)c2)oc2cc(O)cc(O)c12 [Compound 32, amentoflavone, reference compound]	7.06
COc1cc(-c2cc(=O)c3c(O)cc(O)c(-c4c(O)cc(O)c5c(=O)cc(-c6ccc(O)cc6)oc45)c3o2)ccc1O	1.45
O=c1cc(-c2ccc(O)cc2)oc2c(-c3c(O)cc(O)c4c(=O)cc(-c5ccc(O)cc5)oc34)c(O)cc(O)c12	9.61
O=c1cc(-c2ccc(O)c(O)c2)oc2cc(O)cc(O)c12 [Compound 18, luteolin, reference compound]	56.4
COc1cc(-c2cc(=O)c3c(O)cc(O)c(-c4c(O)cc(O)c5c(=O)cc(-c6ccc(O)c(OC)c6)oc45)c3o2)ccc1O	-0.85

----------
# System: NF-κB
# Assay Remarks: NF-κB-driven luciferase reporter gene transactivation in TNF-α-stimulated HEK293/NF-κB-luc cells
# Type: cell-based
# Condition Description: pure compound, screening 30 µM
Observed Property: effect on NF-κB activation

Compound	Recorded Measurement
COc1ccc(-c2cc(=O)c3c(O)cc(O)c(-c4cc(-c5cc(=O)c6c(O)cc(O)cc6o5)ccc4O)c3o2)cc1 [Compound 33, podocarpusflavone A, reference compound]	potently inhibited
O=c1cc(-c2ccc(O)c(-c3c(O)cc(O)c4c(=O)cc(-c5ccc(O)cc5)oc34)c2)oc2cc(O)cc(O)c12 [Compound 32, amentoflavone, reference compound]	potently inhibited

----------
# Test system: NO production
# Assay Remarks: NO release from LPS/IFN-γ-stimulated RAW 264.7 macrophages (Griess)
# Assay type: cell-based, mouse
# Condition Description: Mus musculus, Macrophage; LPS/IFNγ-stimulated RAW macrophages
pIC50: −log10 of the molar value.
Observed Property: pIC50

In [3]: df
Out[3]:
                                   compound  observed_property  recorded_measurement
0  O=c1cc(-c2ccc(O)c(O)c2)oc2cc(O)cc(O)c12 [Compound 18, luteolin, reference compound]              pIC50                  4.50
